Here, each record is paired with measured relative viability data.
Test system: HARA
Test: relative viability (nuclei count vs DMSO), 5 days (fraction); higher = more cells survive
Settings: first compound 0.001 µM
Returns: the value as a bare number; no unit string appended.

Below, 5 molecules whose answers are already recorded.
Cc1cn(-c2cc(NC(=O)c3ccc(C)c(Nc4nccc(-c5cccnc5)n4)c3)cc(C(F)(F)F)c2)cn1 [Nilotinib] + C[C@]1(O)C[C@@H](c2nc(-c3ccc4ccc(-c5ccccc5)nc4c3)c3c(N)nccn32)C1 [Linsitinib] (partner 1 µM) :: 0.987
Cc1cn(-c2cc(NC(=O)c3ccc(C)c(Nc4nccc(-c5cccnc5)n4)c3)cc(C(F)(F)F)c2)cn1 [Nilotinib] + N=C(N)NC(=N)NCCc1ccccc1 [Phenformin] (partner 250 µM) :: 0.402
Cc1cn(-c2cc(NC(=O)c3ccc(C)c(Nc4nccc(-c5cccnc5)n4)c3)cc(C(F)(F)F)c2)cn1 [Nilotinib] + CC(C)C[C@H](NC(=O)[C@H](Cc1ccccc1)NC(=O)c1cnccn1)B(O)O [Bortezomib] (partner 0.002 µM) :: 1.17
Cc1cn(-c2cc(NC(=O)c3ccc(C)c(Nc4nccc(-c5cccnc5)n4)c3)cc(C(F)(F)F)c2)cn1 [Nilotinib] + CC1(C)CCC(c2ccc(Cl)cc2)=C(CN2CCN(c3ccc(C(=O)NS(=O)(=O)c4ccc(N[C@H](CCN5CCOCC5)CSc5ccccc5)c(S(=O)(=O)C(F)(F)F)c4)cc3)CC2)C1 [Navitoclax] (partner 0.5 µM) :: 1.07
Cc1cn(-c2cc(NC(=O)c3ccc(C)c(Nc4nccc(-c5cccnc5)n4)c3)cc(C(F)(F)F)c2)cn1 [Nilotinib] + NC(=O)Nc1cc(-c2cccc(F)c2)sc1C(=O)N[C@H]1CCCNC1 [AZD7762] (partner 0.2 µM) :: 0.329

Would you please give the reported relative viability of Cc1cn(-c2cc(NC(=O)c3ccc(C)c(Nc4nccc(-c5cccnc5)n4)c3)cc(C(F)(F)F)c2)cn1 [Nilotinib] + O=C(CCCCCCC(=O)Nc1ccccc1)NO [Vorinostat] (partner 1 µM) with HARA?
0.544

---

Tested on: NCI-H322M
Assay: relative viability (nuclei count vs DMSO), 5 days (fraction); higher = more cells survive
Conditions: first compound 0.1 µM
Hi! Just check whether relative viability is below 0.8. Below gives satisfied, equal or above gives not satisfied.

Cc1cn(-c2cc(NC(=O)c3ccc(C)c(Nc4nccc(-c5cccnc5)n4)c3)cc(C(F)(F)F)c2)cn1 [Nilotinib] + CS(=O)(=O)CCNCc1ccc(-c2ccc3ncnc(Nc4ccc(OCc5cccc(F)c5)c(Cl)c4)c3c2)o1 [Lapatinib] (partner 2 µM) :: satisfied
Cc1cn(-c2cc(NC(=O)c3ccc(C)c(Nc4nccc(-c5cccnc5)n4)c3)cc(C(F)(F)F)c2)cn1 [Nilotinib] + C[C@@H](Oc1cc(-c2cnn(C3CCNCC3)c2)cnc1N)c1c(Cl)ccc(F)c1Cl [Crizotinib] (partner 1 µM) :: not satisfied
Cc1cn(-c2cc(NC(=O)c3ccc(C)c(Nc4nccc(-c5cccnc5)n4)c3)cc(C(F)(F)F)c2)cn1 [Nilotinib] + Cc1cc(Nc2cc(N3CCN(C)CC3)nc(Sc3ccc(NC(=O)C4CC4)cc3)n2)n[nH]1 [Tozasertib] (partner 0.1 µM) :: satisfied
Cc1cn(-c2cc(NC(=O)c3ccc(C)c(Nc4nccc(-c5cccnc5)n4)c3)cc(C(F)(F)F)c2)cn1 [Nilotinib] + Cc1nc(Nc2ncc(C(=O)Nc3c(C)cccc3Cl)s2)cc(N2CCN(CCO)CC2)n1 [Dasatinib] (partner 0.075 µM) :: satisfied
Cc1cn(-c2cc(NC(=O)c3ccc(C)c(Nc4nccc(-c5cccnc5)n4)c3)cc(C(F)(F)F)c2)cn1 [Nilotinib] + Cc1nc(NC(=O)N2CCC[C@H]2C(N)=O)sc1-c1ccnc(C(C)(C)C(F)(F)F)c1 [Alpelisib] (partner 2 µM) :: not satisfied

For Cc1cn(-c2cc(NC(=O)c3ccc(C)c(Nc4nccc(-c5cccnc5)n4)c3)cc(C(F)(F)F)c2)cn1 [Nilotinib] + CC(=O)Nc1cccc(-n2c(=O)n(C3CC3)c(=O)c3c(Nc4ccc(I)cc4F)n(C)c(=O)c(C)c32)c1 [Trametinib] (partner 0.02 µM) , is the recorded relative viability below the cut-off of 0.8?
satisfied

For Cc1cn(-c2cc(NC(=O)c3ccc(C)c(Nc4nccc(-c5cccnc5)n4)c3)cc(C(F)(F)F)c2)cn1 [Nilotinib] + COc1cccc2cc(-c3nc([C@H]4CC[C@H](C(=O)O)CC4)n4ncnc(N)c34)[nH]c12 [OSI-027] (partner 0.5 µM) , is the recorded relative viability below the cut-off of 0.8?
satisfied

For Cc1cn(-c2cc(NC(=O)c3ccc(C)c(Nc4nccc(-c5cccnc5)n4)c3)cc(C(F)(F)F)c2)cn1 [Nilotinib] + CCNC(=O)c1noc(-c2cc(C(C)C)c(O)cc2O)c1-c1ccc(CN2CCOCC2)cc1 [Luminespib] (partner 0.01 µM) , is the recorded relative viability below the cut-off of 0.8?
not satisfied

---

Tested on: NCI-H1437
Assay: relative viability (nuclei count vs DMSO), 5 days (fraction); higher = more cells survive
Settings: first compound 0.03162 µM
Endpoint: relative viability
Returns: the value as a bare number; no unit string appended.

Cc1cn(-c2cc(NC(=O)c3ccc(C)c(Nc4nccc(-c5cccnc5)n4)c3)cc(C(F)(F)F)c2)cn1 [Nilotinib] + CS(=O)(=O)N1CCN(Cc2cc3nc(-c4cccc5[nH]ncc45)nc(N4CCOCC4)c3s2)CC1 [Pictilisib] (partner 1 µM) :: 0.47
Cc1cn(-c2cc(NC(=O)c3ccc(C)c(Nc4nccc(-c5cccnc5)n4)c3)cc(C(F)(F)F)c2)cn1 [Nilotinib] + N=C(N)NC(=N)NCCc1ccccc1 [Phenformin] (partner 250 µM) :: 0.23
Cc1cn(-c2cc(NC(=O)c3ccc(C)c(Nc4nccc(-c5cccnc5)n4)c3)cc(C(F)(F)F)c2)cn1 [Nilotinib] + CCNC(=O)c1noc(-c2cc(C(C)C)c(O)cc2O)c1-c1ccc(CN2CCOCC2)cc1 [Luminespib] (partner 0.01 µM) :: 0.885
Cc1cn(-c2cc(NC(=O)c3ccc(C)c(Nc4nccc(-c5cccnc5)n4)c3)cc(C(F)(F)F)c2)cn1 [Nilotinib] + CC1(C)CCC(c2ccc(Cl)cc2)=C(CN2CCN(c3ccc(C(=O)NS(=O)(=O)c4ccc(N[C@H](CCN5CCOCC5)CSc5ccccc5)c(S(=O)(=O)C(F)(F)F)c4)cc3)CC2)C1 [Navitoclax] (partner 0.5 µM) :: 0.766
Cc1cn(-c2cc(NC(=O)c3ccc(C)c(Nc4nccc(-c5cccnc5)n4)c3)cc(C(F)(F)F)c2)cn1 [Nilotinib] + Cc1cc(Nc2cc(N3CCN(C)CC3)nc(Sc3ccc(NC(=O)C4CC4)cc3)n2)n[nH]1 [Tozasertib] (partner 0.1 µM) :: 0.304
Cc1cn(-c2cc(NC(=O)c3ccc(C)c(Nc4nccc(-c5cccnc5)n4)c3)cc(C(F)(F)F)c2)cn1 [Nilotinib] + CC(=O)Nc1cccc(-n2c(=O)n(C3CC3)c(=O)c3c(Nc4ccc(I)cc4F)n(C)c(=O)c(C)c32)c1 [Trametinib] (partner 0.02 µM) :: 0.382
Cc1cn(-c2cc(NC(=O)c3ccc(C)c(Nc4nccc(-c5cccnc5)n4)c3)cc(C(F)(F)F)c2)cn1 [Nilotinib] + NC(=O)Nc1cc(-c2cccc(F)c2)sc1C(=O)N[C@H]1CCCNC1 [AZD7762] (partner 0.2 µM) :: 0.899

Then this compound:
Look up and state reported relative viability for Cc1cn(-c2cc(NC(=O)c3ccc(C)c(Nc4nccc(-c5cccnc5)n4)c3)cc(C(F)(F)F)c2)cn1 [Nilotinib] + Cc1nc(Nc2ncc(C(=O)Nc3c(C)cccc3Cl)s2)cc(N2CCN(CCO)CC2)n1 [Dasatinib] (partner 0.075 µM)
0.296

---

Here, each record is paired with measured relative viability data.
Test system: LOU-NH91
Assay: relative viability (nuclei count vs DMSO), 5 days (fraction); higher = more cells survive
Details: first compound 20 µM

Cc1csc(=NC2CCCCC2)n1/N=C/c1ccc(O)c(O)c1O [MIM1] + C[C@]1(O)C[C@@H](c2nc(-c3ccc4ccc(-c5ccccc5)nc4c3)c3c(N)nccn32)C1 [Linsitinib] (partner 1 µM) :: 0.592
Cc1csc(=NC2CCCCC2)n1/N=C/c1ccc(O)c(O)c1O [MIM1] + COc1cc2c(Oc3ccc(NC(=O)C4(C(=O)Nc5ccc(F)cc5)CC4)cc3F)ccnc2cc1OCCCN1CCOCC1 [Foretinib] (partner 0.25 µM) :: 0.39
Cc1csc(=NC2CCCCC2)n1/N=C/c1ccc(O)c(O)c1O [MIM1] + N=C(N)NC(=N)NCCc1ccccc1 [Phenformin] (partner 250 µM) :: 0.302
Cc1csc(=NC2CCCCC2)n1/N=C/c1ccc(O)c(O)c1O [MIM1] + O=C(CCCCCCC(=O)Nc1ccccc1)NO [Vorinostat] (partner 1 µM) :: 0.298

Then this compound:
Look up and state reported relative viability for Cc1csc(=NC2CCCCC2)n1/N=C/c1ccc(O)c(O)c1O [MIM1] + NC(=O)Nc1cc(-c2cccc(F)c2)sc1C(=O)N[C@H]1CCCNC1 [AZD7762] (partner 0.2 µM)
0.279
